# Lookup of reported EC50 keyed by entry
- assayed-target: WT human STING isoform (Homo sapiens (Human), UniProt Q86WV6, H232R)
- Sequence (Q86WV6 whole entry H232R, canonical isoform): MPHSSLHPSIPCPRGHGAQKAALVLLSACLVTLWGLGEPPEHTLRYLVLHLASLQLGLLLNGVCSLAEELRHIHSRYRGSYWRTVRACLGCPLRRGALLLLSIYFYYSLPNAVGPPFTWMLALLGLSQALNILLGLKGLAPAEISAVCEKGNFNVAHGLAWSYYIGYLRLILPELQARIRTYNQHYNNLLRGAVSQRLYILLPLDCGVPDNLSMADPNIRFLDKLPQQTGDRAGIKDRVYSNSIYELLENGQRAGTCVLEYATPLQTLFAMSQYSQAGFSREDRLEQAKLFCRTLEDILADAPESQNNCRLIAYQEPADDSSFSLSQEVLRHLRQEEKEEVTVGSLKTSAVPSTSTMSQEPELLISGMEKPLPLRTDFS
- assay-remarks: THP-1-Dual KI-hSTING-R232 reporter cell line assay
- measurement-parameters: 24 h incubation, luminescence, normalized to ML RR-S2 CDA 40 μM; read-out: EC50 THP-1 Dual KI-hSTING-R232 cells
Numbers only; they are read as µM.

NC(=O)c1ccc2c(c1)nc(-c1c(C(=O)O)sc3cccc(Cl)c13)n2CCn1c(-c2c(C(=O)O)sc3cccc(Cl)c23)nc2cc(C(N)=O)ccc21 (single isomer, unassigned) [Example 1.2] | 6.33
CCOC(=O)c1sc2c(F)ccc(Cl)c2c1-c1nc2cc(C(N)=O)ccc2n1CCn1c(-c2c(C(=O)OCC)sc3c(F)ccc(Cl)c23)nc2cc(C(N)=O)ccc21 [Example A2] | 3.17

Kindly consider the entry below.
Q. Query: EC50; subject: CCOC(=O)c1sc2cccc(Cl)c2c1-c1nc2c(OC)c(C(N)=O)ccc2n1CCn1c(-c2c(C(=O)OCC)sc3cccc(Cl)c23)nc2c(OC)c(C(N)=O)ccc21 [Example 21]
A. 0.007
